The entries below come with measured kobs /[I] bovine trypsin values attached.
SYSTEM_TESTED: bovine trypsin (Bos taurus)
Sequence (P00760 24-246): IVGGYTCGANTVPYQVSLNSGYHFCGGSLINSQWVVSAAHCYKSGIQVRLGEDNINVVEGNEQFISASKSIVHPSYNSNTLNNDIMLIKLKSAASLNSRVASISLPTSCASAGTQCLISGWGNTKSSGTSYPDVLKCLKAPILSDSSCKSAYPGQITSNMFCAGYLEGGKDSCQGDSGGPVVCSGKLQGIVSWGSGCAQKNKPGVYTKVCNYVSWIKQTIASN
PROTOCOL: Inactivation rate of bovine trypsin, incubation method
Type: biochemical
REPORTED_CONDITIONS: Table III; enzyme 0.06-0.5 μM, inhibitor 0.25-42 μM, 9% DMSO, 25° C.; NI = no inhibition

COMPOUND: NCCCCC(NC(=O)C1CCCN1C(=O)CNS(=O)(=O)Cc1ccccc1)P(=O)(Oc1ccccc1)Oc1ccccc1 (mixture of isomers)
kobs /[I] bovine trypsin: 12,472 ± 1,400 M^-1 s^-1
--
COMPOUND: CC(O)C(NC(=O)OCc1ccccc1)C(=O)NC(CCCCN)P(=O)(Oc1ccccc1)Oc1ccccc1 (mixture of isomers)
kobs /[I] bovine trypsin: 230 M⁻¹ s⁻¹
--
COMPOUND: CC(C)(C)OC(=O)NC(CC(N)=O)C(=O)NC(CCCCN)P(=O)(Oc1ccccc1)Oc1ccccc1 (mixture of isomers)
kobs /[I] bovine trypsin: 3 M⁻¹ s⁻¹
--
COMPOUND: Cl.NCCCCC(NC(=O)[C@@H]1CCCN1C(=O)c1ccccc1Oc1ccccc1)P(=O)(Oc1ccccc1)Oc1ccccc1 (stereo partly drawn)
kobs /[I] bovine trypsin: 16,411 ± 460 M^-1 s^-1
--
COMPOUND: Cl.NCCCCC(NC(=O)OCc1ccccc1)P(=O)(Oc1ccccc1)Oc1ccccc1 (stereo not drawn)
kobs /[I] bovine trypsin: 6,235 M^-1 s^-1
--
COMPOUND: NCCCCCC(NC(=O)C1CCCN1C(=O)CNS(=O)(=O)Cc1ccccc1)P(=O)(Oc1ccccc1)Oc1ccccc1 (mixture of isomers)
kobs /[I] bovine trypsin: 528 ± 59 M⁻¹ s⁻¹

---

SYSTEM_TESTED: human thrombin (Homo sapiens, UniProt P00734)
Construct: bovine trypsin, human thrombin
Type: biochemical
REPORTED_CONDITIONS: Table II; 0.07 μM thrombin, 0.25-42 μM inhibitor, 80 mM Hepes pH 7.5, 428 mM NaCl, 8% DMSO, 25° C.; NI = no inhibition
The entries below come with measured kobs /[I] human thrombin values attached.

COMPOUND: N=C(N)c1ccc(C(NC(=O)C(Cc2ccccc2)NC(=O)OCc2ccccc2)P(=O)(Oc2ccccc2)Oc2ccccc2)cc1 (mixture of isomers)
SYSTEM_TESTED: human thrombin (Homo sapiens, UniProt P00734)
kobs /[I] human thrombin (M⁻¹ s⁻¹): 20
--
COMPOUND: N=C(N)c1ccc(C(NC(=O)Oc2cccc3ccccc23)P(=O)(Oc2ccccc2)Oc2ccccc2)cc1 (stereo not drawn)
SYSTEM_TESTED: human thrombin (Homo sapiens, UniProt P00734)
kobs /[I] human thrombin (M⁻¹ s⁻¹): 30
--
COMPOUND: Cl.N=C(N)c1ccc(C(NC(=O)/C=C/c2ccccc2)P(=O)(Oc2ccccc2)Oc2ccccc2)cc1 (stereo not drawn) [trans-Cinnamoyl-(4-AmPhGly)^P (OPh)2]
SYSTEM_TESTED: human thrombin (Homo sapiens, UniProt P00734)
kobs /[I] human thrombin (M⁻¹ s⁻¹): 20
--
COMPOUND: Cl.N=C(N)c1ccc(C(NC(=O)c2ccccc2Oc2ccccc2)P(=O)(Oc2ccccc2)Oc2ccccc2)cc1 (stereo not drawn)
SYSTEM_TESTED: human thrombin (Homo sapiens, UniProt P00734)
kobs /[I] human thrombin (M⁻¹ s⁻¹): 270
--
COMPOUND: C[C@@H](O)[C@H](NC(=O)OCc1ccccc1)C(=O)NC(c1ccc(C(=N)N)cc1)P(=O)(Oc1ccccc1)Oc1ccccc1 (stereo partly drawn)
SYSTEM_TESTED: human thrombin (Homo sapiens, UniProt P00734)
kobs /[I] human thrombin (M⁻¹ s⁻¹): 61
--
COMPOUND: Cl.N=C(N)c1ccc(C(NC(=O)C=Cc2ccco2)P(=O)(Oc2ccccc2)Oc2ccccc2)cc1 (stereo not drawn)
SYSTEM_TESTED: human thrombin (Homo sapiens, UniProt P00734)
kobs /[I] human thrombin (M⁻¹ s⁻¹): 15

Values compiled from patent US5952307A.
